Documented lowest phenotypically active concentration across a set of compounds
System: HepG2-TUBA1B-RELA
Test: lowest phenotypically active concentration; higher = less potent
Conditions: treatment time: 24 h
Where a name gives a salt, the structure may show the parent alone.

Use these answered entries as a reference point.
>>> value("COc1cccc(-c2cc(F)ccc2[C@H]2Cc3nc(N)nc(C)c3C(=O)N2)n1")
"≤ 0.3 µM"
>>> value("Cc1c(NC(=O)OC[C@@H]2COCCN2)cn2ncnc(Nc3ccc4c(cnn4Cc4cccc(F)c4)c3)c12")
"1 µM"
>>> value("COCCCOc1ccnc(CS(=O)c2nc3ccccc3[nH]2)c1C (stereo not drawn)")
"9 µM"
>>> value("Cc1cc2c(F)c(Oc3ncnn4cc(OC[C@@H](C)OC(=O)[C@H](C)N)c(C)c34)ccc2[nH]1 [brivanib-alaninate]")
"9 µM"
>>> value("CC(C)NCCCn1c(Sc2cc3c(cc2I)OCO3)nc2c(N)ncnc21")
"≤ 0.3 µM"
>>> value("Clc1ccc(N/N=C(\\c2ccccc2)c2ccccn2)nc1")
"≤ 0.3 µM"
>>> value("C=CC(=O)N1CCC[C@@H](n2nc(-c3cccc(C(=O)Nc4ccc(C(C)C)c(C)c4)c3)c3c(N)ncnc32)C1")
"1 µM"
>>> value("COc1ccc(Cl)cc1NC(=O)Nc1cc(C)nc2ccccc12")
"3 µM"
>>> value("Cn1cc(-c2[nH]c3cc(NC(=O)[C@H](N)C4CCCCC4)cc4c3c2C=NNC4=O)cn1")
"1 µM"
>>> value("O[C@H](CNC[C@H](O)[C@@H]1CCc2cc(F)ccc2O1)[C@@H]1CCc2cc(F)ccc2O1")
"3 µM"

--- query ---
## Input Specify lowest phenotypically active concentration for CN1CCN(C(=O)CN[C@H]2C[C@@H]2c2ccc(OCc3ccccc3)cc2)CC1 [RN 1 dihydrochloride] , system HepG2-TUBA1B-RELA.
## Output 3 µM

----------
# key: entry, value: lowest phenotypically active concentration
Test system: HepG2-ACTB-RAB5A
Assay: lowest phenotypically active concentration; higher = less potent
Settings: treatment time: 24 h
Supply the numeric figure in µM, leaving out any unit text.

Here are 4 molecules together with their reported answers.
>>> value("O=S(=O)(c1cccc2cnccc12)N1CCNCC1")
9
>>> value("CSc1ccc2c(c1)N(CCC1CCCCN1C)c1ccccc1S2 (configuration not stated)")
9
>>> value("O=C(OC12CC3CC(CC(C3)C1)C2)c1ccc(NCc2cc(O)ccc2O)cc1")
1
>>> value("COc1ccc(S(=O)(=O)N(CCO)c2ccccc2CN(C)C/C=C/c2ccc(Cl)cc2)cc1")
9

## Input Please report lowest phenotypically active concentration for the following molecule: COc1ccc(Cl)cc1NC(=O)Nc1cc(C)nc2ccccc12
## Output 3

## Input Determine its reported lowest phenotypically active concentration: COc1c(Nc2cc(C)[nH]n2)nc(Sc2ccc(S(=O)(=O)Cc3cccc([N+](=O)[O-])c3F)cc2F)nc1N1CCOCC1
## Output 9

## Input Determine from records and report lowest phenotypically active concentration for O=c1cc(-c2ccccc2)oc2c(O)c(O)ccc12 [7,8-Dihydroxyflavone]
## Output 9

## Input Give the measured lowest phenotypically active concentration for Cc1cc(C(C)Nc2ccccc2)c2nc(N3CCOCC3)cc(=O)n2c1 (configuration not stated)
## Output 9

## Input For Cc1ccc(S(=O)(=O)n2c(N)nc3ccccc32)cc1 , write its lowest phenotypically active concentration.
## Output 9

## Input Please look at this molecule and report its lowest phenotypically active concentration: Cc1cnc(NC(=O)Nc2cc(Br)c(C)cc2OC[C@@H]2CNCCO2)cn1
## Output 3
